// compounds with IC50 on HPK1 (Homo sapiens (Human)), multi-source literature

Examples from the recorded data:
Cc1cc(-c2cnc3[nH]cc(C(F)(F)F)c3c2)cc([C@@H]2COCCN2)c1C1CCOCC1	0.01 to 5 nM
CCc1c[nH]c2ncc(-c3cccc(N4CCN(C(=O)CCCCCN(C)c5cccc6c5CN(C5CCC(=O)NC5=O)C6=O)CC4=O)c3)c(Cl)c12 (stereo not shown)	10 to 100 nM
CCc1c[nH]c2ncc(-c3cccc(N4CCCC(CO)C4=O)c3)c(Cl)c12 (racemic)	≤ 10 nM

Incoming: Supply IC50 measured with HPK1 (Homo sapiens (Human)) for `CC(=O)NCc1c(C)cc(-c2cnc(N)c(Oc3cnn(C4CCN(C)CC4)c3)n2)cc1C` .
Outgoing: 51 nM

Incoming: Supply IC50 measured with HPK1 (Homo sapiens (Human)) for Cn1nc(C2CCC(=O)NC2=O)c2ccc(C3CCN(CCCN4CCN(c5cccc(-c6cnc7[nH]cc(C8CC8)c7c6Cl)c5)C(=O)C4)CC3)cc21 (stereo not shown) .
Outgoing: ≤ 10 nM

Incoming: Report value: IC50, system: HPK1 (Homo sapiens (Human)), compound: `Fc1cccc2c1-c1cc3c(n[nH]c3cn1)-c1ccc(N3CCC(N4CCOCC4)CC3)c(c1)OCCCOC2`
Outgoing: ≤ 5 nM

Incoming: Determine reported IC50 for `CN1CCN(c2ccc3cc2OCCCOCc2cccc(F)c2-c2cc4c-3n[nH]c4cn2)CC1` ; test system: HPK1 (Homo sapiens (Human)).
Outgoing: ≤ 5 nM

Incoming: With HPK1 (Homo sapiens (Human)) as the test system, provide measured IC50 for this compound: CCc1c[nH]c2ncc(-c3cccc(N4CCN(CCNC(=O)C5CCN(c6ccc7c(c6)C(=O)N(C6CCC(=O)NC6=O)C7=O)CC5)CC4=O)c3)c(Cl)c12 (stereo not shown)
Outgoing: > 1000 nM

Incoming: Fill in IC50 for `Cc1cc(-c2cnc(N)c(Oc3cnn(C4CCN(C)CC4)c3)n2)cc(C2(O)COC2)c1C1=CCOCC1` tested with HPK1 (Homo sapiens (Human)).
Outgoing: 40 nM

Incoming: GET IC50 where system = HPK1 (Homo sapiens (Human)) and item = O=C1CCC(N2C(=O)c3cc(F)c(N4CCN(CCCN5CCN(c6cccc(-c7cnc8[nH]cc(C9CC9)c8c7Cl)n6)C(=O)C5)CC4)cc3C2=O)C(=O)N1 (stereo not shown)
Outgoing: 10 to 100 nM
